system: Mitogen-activated protein kinase kinase kinase kinase 1 (Homo sapiens, UniProt Q92918); note: in the data inactive means no Kd found up to 30 µM
Sequence (Q92918 whole entry): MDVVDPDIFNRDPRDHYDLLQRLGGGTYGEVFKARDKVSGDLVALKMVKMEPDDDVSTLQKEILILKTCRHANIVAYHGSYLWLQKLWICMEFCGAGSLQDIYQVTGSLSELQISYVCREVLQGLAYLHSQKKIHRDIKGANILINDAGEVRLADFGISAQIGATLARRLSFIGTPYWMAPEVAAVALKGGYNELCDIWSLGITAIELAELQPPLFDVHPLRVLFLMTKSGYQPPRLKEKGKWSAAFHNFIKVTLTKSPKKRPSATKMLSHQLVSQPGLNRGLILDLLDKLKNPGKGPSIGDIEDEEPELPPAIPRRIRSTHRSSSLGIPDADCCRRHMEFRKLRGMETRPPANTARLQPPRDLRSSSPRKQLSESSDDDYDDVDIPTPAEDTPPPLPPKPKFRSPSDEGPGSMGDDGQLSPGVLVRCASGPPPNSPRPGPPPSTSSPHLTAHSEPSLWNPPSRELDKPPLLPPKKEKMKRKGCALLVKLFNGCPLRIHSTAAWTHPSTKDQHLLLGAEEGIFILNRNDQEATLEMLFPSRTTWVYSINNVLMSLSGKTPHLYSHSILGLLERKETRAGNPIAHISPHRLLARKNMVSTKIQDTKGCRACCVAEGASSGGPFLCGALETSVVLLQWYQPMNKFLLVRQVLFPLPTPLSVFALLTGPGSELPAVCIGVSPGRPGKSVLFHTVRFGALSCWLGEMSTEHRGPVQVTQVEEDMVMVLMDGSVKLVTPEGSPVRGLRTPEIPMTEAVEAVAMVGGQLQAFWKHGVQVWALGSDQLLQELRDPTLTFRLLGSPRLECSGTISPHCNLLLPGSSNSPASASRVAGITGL
Calls of active or inactive are those of the source.
Pick from active, inactive when you respond.

Please review the entries below; each comes with its answer.
{"molecule": "CC(=O)Nc1cccc(-n2c(=O)n(C3CC3)c(=O)c3c(Nc4ccc(I)cc4F)n(C)c(=O)c(C)c32)c1", "assigned class": "inactive"}
{"molecule": "CN1CC[C@@H](c2c(O)cc(O)c3c(=O)cc(-c4ccccc4Cl)oc23)[C@@H]1CO", "assigned class": "inactive"}
{"molecule": "Cc1c(F)cc(C(=O)NC2CC2)cc1-c1ccc(C(=O)NCC(C)(C)C)cn1", "assigned class": "inactive"}
{"molecule": "COc1cc(CCc2cc(NC(=O)c3ccc(N4C[C@@H](C)N[C@@H](C)C4)cc3)n[nH]2)cc(OC)c1", "assigned class": "active"}
{"molecule": "Cc1ccc(NC(=O)c2ccc(CN3CC[C@H](N(C)C)C3)c(C(F)(F)F)c2)cc1Nc1nccc(-c2cncnc2)n1", "assigned class": "inactive"}

Please let me know the test result on file for CC(C)Nc1cc(-c2c[nH]c(C(=O)N[C@H](CO)c3cccc(Cl)c3)c2)c(Cl)cn1 .
inactive

Please let me know the test result on file for COc1ccc(-c2ccc3c(N4CCOC[C@@H]4C)nc(N4CCOC[C@@H]4C)nc3n2)cc1CO .
inactive

Please let me know the test result on file for CNC(=O)c1ccc(-c2cnc3ncc(Cc4ccc5ncccc5c4)n3n2)cc1F .
inactive

Please let me know the test result on file for CN1N=C(N)c2cn([C@@H]3O[C@H](COP(=O)(O)O)[C@@H](O)[C@H]3O)c3ncnc1c23 [TRICIRIBINE PHOSPHATE] .
inactive

Please let me know the test result on file for Cc1nc(N)sc1-c1ccnc(Nc2ccc(N3CCOCC3)cc2)n1 .
inactive

Please let me know the test result on file for O=C(O)[C@]1(Cc2cccc(Nc3nccs3)n2)CC[C@@H](Oc2cccc(Cl)c2F)CC1 .
inactive

Please let me know the test result on file for Cc1cc(-c2cc(O)ccc2Cl)cc2nnc(Nc3ccc(OCCN4CCCC4)cc3)nc12 .
inactive

Please let me know the test result on file for COc1cc2nccc(Oc3ccc(NC(=O)Nc4cc(C)on4)c(Cl)c3)c2cc1OC .
inactive

Please let me know the test result on file for C=CC(=O)N1CCC(Oc2cc3c(Nc4ccc(Cl)c(Cl)c4F)ncnc3cc2OC)CC1 .
inactive

Please let me know the test result on file for COc1cc(OC)c(/C=C/S(=O)(=O)Cc2ccc(OC)c(NCC(=O)O)c2)c(OC)c1 .
inactive

Please let me know the test result on file for O=c1sn(-c2cccc3ccccc23)c(=O)n1Cc1ccccc1 .
inactive

----------
system: Mitogen-activated protein kinase kinase kinase 4 (Homo sapiens, UniProt Q9Y6R4); note: in the data inactive means no Kd found up to 30 µM
Sequence (Q9Y6R4 whole entry): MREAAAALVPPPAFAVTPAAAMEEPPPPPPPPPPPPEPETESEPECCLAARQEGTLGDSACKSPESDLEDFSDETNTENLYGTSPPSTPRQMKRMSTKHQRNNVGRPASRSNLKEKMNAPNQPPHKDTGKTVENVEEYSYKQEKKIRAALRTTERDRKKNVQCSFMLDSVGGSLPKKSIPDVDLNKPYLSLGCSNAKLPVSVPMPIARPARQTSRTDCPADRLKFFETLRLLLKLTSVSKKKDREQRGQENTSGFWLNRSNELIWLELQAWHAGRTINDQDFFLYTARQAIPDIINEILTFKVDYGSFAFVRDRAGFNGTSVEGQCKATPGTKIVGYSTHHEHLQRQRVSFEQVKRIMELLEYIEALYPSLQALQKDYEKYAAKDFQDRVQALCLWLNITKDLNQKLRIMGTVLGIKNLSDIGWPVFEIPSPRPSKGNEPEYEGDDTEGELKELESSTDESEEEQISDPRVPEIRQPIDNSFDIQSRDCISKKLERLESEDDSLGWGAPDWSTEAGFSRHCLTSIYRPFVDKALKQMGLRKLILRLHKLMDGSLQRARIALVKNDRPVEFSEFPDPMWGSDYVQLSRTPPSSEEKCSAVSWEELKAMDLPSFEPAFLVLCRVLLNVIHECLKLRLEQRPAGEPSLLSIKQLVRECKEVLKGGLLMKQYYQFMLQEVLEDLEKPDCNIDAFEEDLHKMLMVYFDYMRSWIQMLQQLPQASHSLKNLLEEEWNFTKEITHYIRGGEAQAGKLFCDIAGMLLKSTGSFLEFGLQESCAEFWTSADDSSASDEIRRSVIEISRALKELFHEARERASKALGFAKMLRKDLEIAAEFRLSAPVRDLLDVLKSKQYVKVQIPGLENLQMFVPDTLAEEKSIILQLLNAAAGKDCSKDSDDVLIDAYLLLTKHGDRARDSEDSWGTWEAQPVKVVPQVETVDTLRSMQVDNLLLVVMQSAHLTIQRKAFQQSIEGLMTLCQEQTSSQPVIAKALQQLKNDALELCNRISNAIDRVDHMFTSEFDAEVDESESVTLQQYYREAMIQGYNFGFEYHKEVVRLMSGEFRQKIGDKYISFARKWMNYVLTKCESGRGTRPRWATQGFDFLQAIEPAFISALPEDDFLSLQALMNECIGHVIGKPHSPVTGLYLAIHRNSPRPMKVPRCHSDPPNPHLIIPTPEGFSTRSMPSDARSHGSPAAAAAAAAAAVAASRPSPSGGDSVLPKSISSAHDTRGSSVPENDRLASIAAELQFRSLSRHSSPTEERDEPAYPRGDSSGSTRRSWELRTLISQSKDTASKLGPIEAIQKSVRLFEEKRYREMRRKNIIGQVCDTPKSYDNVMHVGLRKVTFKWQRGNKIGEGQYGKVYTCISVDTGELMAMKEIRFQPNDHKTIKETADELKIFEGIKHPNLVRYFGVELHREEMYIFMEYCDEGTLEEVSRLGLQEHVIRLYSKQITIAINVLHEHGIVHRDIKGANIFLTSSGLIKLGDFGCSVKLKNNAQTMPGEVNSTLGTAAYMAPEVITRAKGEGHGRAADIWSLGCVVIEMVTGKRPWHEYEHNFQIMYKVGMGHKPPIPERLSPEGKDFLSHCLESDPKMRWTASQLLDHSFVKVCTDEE
The source made the active and inactive calls.
Pick from label 1 for active, label 0 for inactive when you respond.

Please review the entries below; each comes with its answer.
{"smiles repr": "C[C@@H](c1ccc2nccn2c1)n1nnc2ncc(-c3cnn(C)c3)nc21", "assigned class": "label 0"}
{"smiles repr": "OCCn1cc(-c2cnc3nnn(Cc4ccc5ncccc5c4)c3n2)cn1", "assigned class": "label 0"}
{"smiles repr": "CC[C@@H]1C(=O)N(C)c2cnc(Nc3ccc(C(=O)N[C@H]4CC[C@H](N5CCN(CC6CC6)CC5)CC4)cc3OC)nc2N1C(C)C", "assigned class": "label 0"}

Please let me know the test result on file for O=C(Nc1cccc(Cl)c1)Nc1ncc(CCNc2ncnc3ccsc23)s1 .
label 0

Please let me know the test result on file for COc1cc(OC)c(/C=C/S(=O)(=O)Cc2ccc(OC)c(NCC(=O)O)c2)c(OC)c1 .
label 0

Please let me know the test result on file for COC(=O)N[C@@H](C)CNc1nccc(-c2cn(C(C)C)nc2-c2cc(Cl)cc(NS(C)(=O)=O)c2F)n1 .
label 1

Please let me know the test result on file for CNC(=O)c1ccc(-c2cnc3ncc(Cc4ccc5ncccc5c4)n3n2)cc1F .
label 0

Please let me know the test result on file for C[C@@H](Nc1cc(F)cc(F)c1)c1cc(C(=O)N(C)C)cc2c(=O)cc(N3CCOCC3)oc12 .
label 0

Where do these numbers come from? They come from ChEMBL document CHEMBL3991601.
